Listed next: entries and their corresponding inhibition at 10 µM.
# targetOfAssay: Lck kinase (Homo sapiens)
# Sequence (P06239 whole entry): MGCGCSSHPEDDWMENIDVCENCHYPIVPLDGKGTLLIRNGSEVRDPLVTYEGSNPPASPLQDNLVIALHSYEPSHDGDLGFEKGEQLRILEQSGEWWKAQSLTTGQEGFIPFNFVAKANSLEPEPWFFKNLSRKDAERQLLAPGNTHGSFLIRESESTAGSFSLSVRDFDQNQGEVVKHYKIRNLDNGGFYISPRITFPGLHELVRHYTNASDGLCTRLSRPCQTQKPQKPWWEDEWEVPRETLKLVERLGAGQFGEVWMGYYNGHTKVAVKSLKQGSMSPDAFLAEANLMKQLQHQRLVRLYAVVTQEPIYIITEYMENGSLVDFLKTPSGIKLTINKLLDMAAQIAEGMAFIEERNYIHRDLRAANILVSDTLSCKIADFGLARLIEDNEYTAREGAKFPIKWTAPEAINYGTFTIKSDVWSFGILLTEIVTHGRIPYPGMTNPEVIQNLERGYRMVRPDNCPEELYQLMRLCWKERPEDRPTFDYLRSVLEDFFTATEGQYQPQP
# testName: Kinase Selectivity Assay (CEREP, HTRF)
# Assay type: biochemical
# conditionSet: read-out: % Inhibition at 10 μM Concentration, Lck
# Description: kinase, ROCK2, RSK2, Src kinase, Syk, and TRKA. The % Inhibition was determined
# value in %; strip the unit string

INSERT INTO results (compound, observed) VALUES
  ('O=C1Nc2ccccc2C1=Cc1ccc2c(/C=C/c3ccccn3)n[nH]c2c1 (mixture of isomers)', 88),
  ('COc1ccc2c(c1)C(=Cc1ccc3c(-c4ccc(N5CCN(C)CC5)nc4)n[nH]c3c1)C(=O)N2 (mixture of isomers)', 89),
  ('O=C1Nc2ccccc2/C1=C\c1ccc2cn[nH]c2c1', 0);

Kindly consider the entry below.
Fill in inhibition at 10 µM for record O=C1Nc2ccccc2/C1=C\c1ccc2c(/C=C/c3ccccc3Cl)n[nH]c2c1
30

----------
# System: 184A1 immortalized breast cell line
# testName: Cell growth inhibition, SRB assay, extended panel
# Format: cell-based
# conditionSet: read-out: GI50 Range, 184A1
measuredMetric: GI50

Example entries and their recorded answers appear below.
INSERT INTO assay_data (compound, observed) VALUES
  ('O=C1Nc2ncc(Br)cc2C1=Cc1ccc2c(/C=C/c3ccncc3)n[nH]c2c1 (mixture of isomers)', '< 5 µM'),
  ('O=C1Nc2ccccc2C1=Cc1ccc2c(/C=C/c3ccccn3)n[nH]c2c1 (mixture of isomers)', '20 to 50 µM'),
  ('COc1ccc2c(c1)C(=Cc1ccc3c(-c4ccc(N5CCN(C)CC5)nc4)n[nH]c3c1)C(=O)N2 (mixture of isomers)', '< 5 µM');

Kindly consider the entry below.
Fill in GI50 for record CN1CCN(c2ccc(/C=C/c3n[nH]c4cc(C=C5C(=O)Nc6ccccc65)ccc34)cn2)CC1 (mixture of isomers)
< 5 µM

----------
Listed next: entries and their corresponding IC50.
# targetOfAssay: Aurora B (Homo sapiens)
# Sequence (Q96GD4 whole entry): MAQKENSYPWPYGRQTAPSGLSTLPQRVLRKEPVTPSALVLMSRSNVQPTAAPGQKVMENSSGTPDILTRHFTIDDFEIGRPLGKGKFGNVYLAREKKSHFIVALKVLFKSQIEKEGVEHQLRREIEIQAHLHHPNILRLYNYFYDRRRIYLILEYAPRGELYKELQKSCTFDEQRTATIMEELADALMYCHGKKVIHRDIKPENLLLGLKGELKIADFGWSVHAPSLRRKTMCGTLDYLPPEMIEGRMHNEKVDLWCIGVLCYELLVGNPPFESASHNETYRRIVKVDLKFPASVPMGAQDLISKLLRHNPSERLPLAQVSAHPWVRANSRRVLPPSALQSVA

INSERT INTO assay_data (molecule, measuredmetric, observed) VALUES
  ('O=C1Nc2ccccc2C1=Cc1ccc2c(-c3cncnc3)n[nH]c2c1 (mixture of isomers) [Example A100]', 'IC50', '< 5 µM'),
  ('CN(C)Cc1ccc(/C=C/c2n[nH]c3cc(C=C4C(=O)Nc5ccccc54)ccc23)cc1 (mixture of isomers) [Example A106, 2,2,2-trifluoroacetate]', 'IC50', '< 5 µM'),
  ('COc1ccc2c(c1)/C(=C\c1ccc3c(/C=C/c4ccncc4Cl)n[nH]c3c1)C(=O)N2 [Example A119]', 'IC50', '< 5 µM'),
  ('O=C1Nc2ccc(Cl)cc2/C1=C\c1ccc2c(/C=C/c3ccncc3)n[nH]c2c1 [Example A84]', 'IC50', '< 5 µM');

Fill in IC50 for record O=C1Nc2ccc(O)cc2/C1=C\c1ccc2c(/C=C/c3ccncc3)n[nH]c2c1 [Example A124, 2,2,2-trifluoroacetate]
< 5 µM

Fill in IC50 for record Cc1ccc2c(c1)C(=Cc1ccc3cn[nH]c3c1)C(=O)N2 (mixture of isomers) [Example A81]
< 5 µM

Fill in IC50 for record CN(C)CCN(C)S(=O)(=O)c1ccc2c(c1)C(=Cc1ccc3c(/C=C/c4ccncc4)n[nH]c3c1)C(=O)N2 (mixture of isomers) [Example A129]
< 5 µM

Fill in IC50 for record CN1CCN(c2ccc(/C=C/c3n[nH]c4cc(C=C5C(=O)Nc6ccccc65)ccc34)cn2)CC1 (mixture of isomers) [Example A108]
< 5 µM

Fill in IC50 for record O=C1Nc2ccc(Br)cc2C1=Cc1ccc2c(/C=C/c3cccnc3)n[nH]c2c1 (mixture of isomers) [Example A139]
< 5 µM
